- measured.target: Tyrosine-protein kinase Mer (Homo sapiens, UniProt Q12866)
- Sequence (Q12866 whole entry): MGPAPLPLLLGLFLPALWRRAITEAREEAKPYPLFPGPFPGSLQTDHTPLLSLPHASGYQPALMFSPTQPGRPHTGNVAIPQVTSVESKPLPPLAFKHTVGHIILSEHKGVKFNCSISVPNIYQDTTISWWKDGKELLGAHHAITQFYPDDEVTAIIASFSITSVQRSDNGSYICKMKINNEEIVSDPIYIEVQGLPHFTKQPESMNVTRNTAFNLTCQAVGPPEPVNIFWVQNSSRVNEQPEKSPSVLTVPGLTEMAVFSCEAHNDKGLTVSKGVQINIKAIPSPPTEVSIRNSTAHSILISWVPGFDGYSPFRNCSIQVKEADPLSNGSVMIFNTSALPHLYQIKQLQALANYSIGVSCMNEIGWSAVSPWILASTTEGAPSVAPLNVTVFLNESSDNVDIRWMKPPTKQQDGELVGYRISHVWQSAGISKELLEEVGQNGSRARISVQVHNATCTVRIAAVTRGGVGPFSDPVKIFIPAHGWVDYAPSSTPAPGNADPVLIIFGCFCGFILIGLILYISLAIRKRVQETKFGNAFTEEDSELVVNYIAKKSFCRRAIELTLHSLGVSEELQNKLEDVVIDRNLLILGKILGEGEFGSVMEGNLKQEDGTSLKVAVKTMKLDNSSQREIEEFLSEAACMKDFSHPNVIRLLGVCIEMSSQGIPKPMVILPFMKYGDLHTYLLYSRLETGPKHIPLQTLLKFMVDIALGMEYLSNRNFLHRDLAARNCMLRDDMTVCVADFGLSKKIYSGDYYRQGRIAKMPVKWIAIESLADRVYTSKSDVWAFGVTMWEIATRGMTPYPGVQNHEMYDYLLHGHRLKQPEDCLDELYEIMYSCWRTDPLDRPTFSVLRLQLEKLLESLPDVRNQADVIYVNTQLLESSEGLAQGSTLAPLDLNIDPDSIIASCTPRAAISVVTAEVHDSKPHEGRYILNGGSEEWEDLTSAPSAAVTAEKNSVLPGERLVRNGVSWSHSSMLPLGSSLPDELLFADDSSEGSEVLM
measured.property: IC50 (nM)

- Cc1c2cc(cc1C(=O)Nc1cc(CN3CCN(C)CC3)cc(C3CC3)c1)OCCCCCCCNC(=O)c1ccc3ncc(n3n1)C#C2: 25.9

---

- measured.target: Epithelial discoidin domain-containing receptor 1 (Homo sapiens, UniProt Q08345)
- Sequence (Q08345 whole entry, the tested form may be a part): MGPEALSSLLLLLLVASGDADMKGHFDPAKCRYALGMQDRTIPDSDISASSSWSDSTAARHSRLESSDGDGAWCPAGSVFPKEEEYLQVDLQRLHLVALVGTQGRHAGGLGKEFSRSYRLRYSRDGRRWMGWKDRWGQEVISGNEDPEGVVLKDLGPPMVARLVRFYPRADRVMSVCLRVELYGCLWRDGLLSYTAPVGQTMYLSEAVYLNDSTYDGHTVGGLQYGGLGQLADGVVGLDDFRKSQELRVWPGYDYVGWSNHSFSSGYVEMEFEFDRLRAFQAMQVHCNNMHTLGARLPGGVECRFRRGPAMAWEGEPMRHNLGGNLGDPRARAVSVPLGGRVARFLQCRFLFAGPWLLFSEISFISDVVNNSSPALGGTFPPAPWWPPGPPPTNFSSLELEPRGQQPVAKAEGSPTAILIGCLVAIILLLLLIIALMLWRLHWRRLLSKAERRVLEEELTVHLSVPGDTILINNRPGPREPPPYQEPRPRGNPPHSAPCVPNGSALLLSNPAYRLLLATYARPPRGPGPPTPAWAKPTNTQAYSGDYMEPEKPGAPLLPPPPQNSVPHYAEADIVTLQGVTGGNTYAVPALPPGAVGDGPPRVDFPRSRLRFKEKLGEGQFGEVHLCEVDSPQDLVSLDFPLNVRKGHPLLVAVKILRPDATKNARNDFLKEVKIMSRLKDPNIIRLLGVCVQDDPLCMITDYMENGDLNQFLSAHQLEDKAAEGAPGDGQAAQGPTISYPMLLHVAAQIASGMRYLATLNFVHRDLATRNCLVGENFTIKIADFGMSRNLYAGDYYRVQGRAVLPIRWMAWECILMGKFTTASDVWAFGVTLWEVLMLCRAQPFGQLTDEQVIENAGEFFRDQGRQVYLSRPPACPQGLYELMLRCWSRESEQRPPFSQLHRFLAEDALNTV
pIC50: −log10 of the molar value.
measured.property: pIC50

- Cc1c2cc(cc1C(=O)Nc1cc(CN3CCN(C)CC3)cc(C3CC3)c1)OCCCCCCCNC(=O)c1ccc3ncc(n3n1)C#C2: 7.62

---

Parameter: IC50. Scope: all listed entries.
- measured.target: NT-3 growth factor receptor (Homo sapiens)
- Sequence (Q16288 whole entry): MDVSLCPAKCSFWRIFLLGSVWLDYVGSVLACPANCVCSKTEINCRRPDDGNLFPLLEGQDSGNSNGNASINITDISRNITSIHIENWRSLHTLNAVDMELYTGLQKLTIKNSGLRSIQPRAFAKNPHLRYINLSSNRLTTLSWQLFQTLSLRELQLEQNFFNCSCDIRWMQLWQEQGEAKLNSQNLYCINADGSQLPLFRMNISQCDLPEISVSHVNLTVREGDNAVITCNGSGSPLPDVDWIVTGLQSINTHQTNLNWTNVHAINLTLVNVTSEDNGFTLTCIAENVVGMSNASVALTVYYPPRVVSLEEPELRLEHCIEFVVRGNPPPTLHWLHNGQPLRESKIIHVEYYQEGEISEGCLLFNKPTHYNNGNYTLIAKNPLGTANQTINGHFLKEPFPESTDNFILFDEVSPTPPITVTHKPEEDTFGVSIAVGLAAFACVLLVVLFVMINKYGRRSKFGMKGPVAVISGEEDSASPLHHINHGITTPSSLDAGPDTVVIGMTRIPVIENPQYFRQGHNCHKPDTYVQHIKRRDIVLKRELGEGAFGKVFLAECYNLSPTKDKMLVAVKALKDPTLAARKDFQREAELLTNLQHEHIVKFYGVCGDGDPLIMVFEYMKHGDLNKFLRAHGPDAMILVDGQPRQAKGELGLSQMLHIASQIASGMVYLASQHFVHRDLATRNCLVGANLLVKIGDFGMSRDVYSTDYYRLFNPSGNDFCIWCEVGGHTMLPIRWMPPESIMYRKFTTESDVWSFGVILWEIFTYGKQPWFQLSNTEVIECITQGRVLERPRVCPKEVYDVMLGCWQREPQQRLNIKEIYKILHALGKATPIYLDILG
measured.property: IC50 (nM)

* Cc1c2cc(cc1NC(=O)Nc1ccc(Cl)c(C(F)(F)F)c1)OCCCCCCCNC(=O)c1ccc3ncc(n3n1)C#C2 | 42.4
* Cc1cn(-c2cc(NC(=O)c3cc4cc(c3C)C#Cc3cnc5ccc(nn35)NCCN(C)C(=O)CCCCO4)cc(C(F)(F)F)c2)cn1 | 5.95
* Cc1c2cc(cc1C(=O)Nc1cc(C(C)(C)C)nn1-c1ccc(Cl)cc1)OCCCCCCCNC(=O)c1ccc3ncc(n3n1)C#C2 | 13.5
* Cc1cn(-c2cc(NC(=O)c3cc4cc(c3C)C#Cc3cnc5ccc(nn35)C(=O)NCCCCCCO4)cc(C(F)(F)F)c2)cn1 | 9.45
* Cc1c2cc(cc1C(=O)Nc1ccc(CN3CCN(C)CC3)c(C(F)(F)F)c1)OCCCCCCCNC(=O)c1ccc3ncc(n3n1)C#C2 | 11.4
* Cc1c2cc(cc1C(=O)Nc1cc(CN3CCN(C)CC3)cc(C(C)(C)C)c1)OCCCCCCCNC(=O)c1ccc3ncc(n3n1)C#C2 | 5.22
* Cc1c2cc(cc1C(=O)Nc1cc(N3CCC(N4CCOCC4)CC3)cc(C(F)(F)F)c1)OCCCCCCCNC(=O)c1ccc3ncc(n3n1)C#C2 | 8.51
* Cc1cn(-c2cc(NC(=O)c3cc4cc(c3C)C#Cc3cnc5ccc(nn35)NCCNC(=O)CCCCO4)cc(C(F)(F)F)c2)cn1 | 7.06
* Cc1cn(-c2cc(NC(=O)c3cc4cc(c3C)C#Cc3cnc5ccc(nn35)C(=O)NCCCCCCCCO4)cc(C(F)(F)F)c2)cn1 | 27.8
* Cc1cn(-c2cc(NC(=O)c3cc4cc(c3C)C#Cc3cnc5ccc(nn35)C(=O)NCCCCCO4)cc(C(F)(F)F)c2)cn1 | 20.3
* Cc1c2cc(cc1C(=O)Nc1cc(CN3CCN(C)CC3)cc(C(C)C)c1)OCCCCCCCNC(=O)c1ccc3ncc(n3n1)C#C2 | 2.83
* Cc1c2cc(cc1C(=O)Nc1cc(CN3CCCN(C)CC3)cc(C(F)(F)F)c1)OCCCCCCCNC(=O)c1ccc3ncc(n3n1)C#C2 | 4.05

---

- measured.target: Tyrosine-protein kinase HCK (Homo sapiens, UniProt P08631)
- Sequence (P08631 whole entry): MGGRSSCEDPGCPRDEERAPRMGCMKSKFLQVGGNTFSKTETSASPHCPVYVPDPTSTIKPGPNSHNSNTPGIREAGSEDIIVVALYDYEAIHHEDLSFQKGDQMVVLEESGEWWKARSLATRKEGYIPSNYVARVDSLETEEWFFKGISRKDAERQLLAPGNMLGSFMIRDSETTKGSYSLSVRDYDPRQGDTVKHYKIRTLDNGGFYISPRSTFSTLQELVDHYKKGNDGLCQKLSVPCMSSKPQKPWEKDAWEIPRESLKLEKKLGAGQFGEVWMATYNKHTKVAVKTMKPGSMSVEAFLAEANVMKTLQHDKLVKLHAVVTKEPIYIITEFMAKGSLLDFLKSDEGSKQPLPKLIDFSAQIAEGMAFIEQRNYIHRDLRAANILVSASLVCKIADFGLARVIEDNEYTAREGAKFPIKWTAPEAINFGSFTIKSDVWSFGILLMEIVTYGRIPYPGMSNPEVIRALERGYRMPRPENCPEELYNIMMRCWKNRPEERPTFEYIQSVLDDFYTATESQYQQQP
measured.property: IC50 (µM)

• Cc1c2cc(cc1C(=O)Nc1cc(CN3CCN(C)CC3)cc(C3CC3)c1)OCCCCCCCNC(=O)c1ccc3ncc(n3n1)C#C2 = 0.253

---

- measured.target: High affinity nerve growth factor receptor (Homo sapiens, UniProt P04629, G667C)
- Sequence (P04629 33-796 G667C limits assumed): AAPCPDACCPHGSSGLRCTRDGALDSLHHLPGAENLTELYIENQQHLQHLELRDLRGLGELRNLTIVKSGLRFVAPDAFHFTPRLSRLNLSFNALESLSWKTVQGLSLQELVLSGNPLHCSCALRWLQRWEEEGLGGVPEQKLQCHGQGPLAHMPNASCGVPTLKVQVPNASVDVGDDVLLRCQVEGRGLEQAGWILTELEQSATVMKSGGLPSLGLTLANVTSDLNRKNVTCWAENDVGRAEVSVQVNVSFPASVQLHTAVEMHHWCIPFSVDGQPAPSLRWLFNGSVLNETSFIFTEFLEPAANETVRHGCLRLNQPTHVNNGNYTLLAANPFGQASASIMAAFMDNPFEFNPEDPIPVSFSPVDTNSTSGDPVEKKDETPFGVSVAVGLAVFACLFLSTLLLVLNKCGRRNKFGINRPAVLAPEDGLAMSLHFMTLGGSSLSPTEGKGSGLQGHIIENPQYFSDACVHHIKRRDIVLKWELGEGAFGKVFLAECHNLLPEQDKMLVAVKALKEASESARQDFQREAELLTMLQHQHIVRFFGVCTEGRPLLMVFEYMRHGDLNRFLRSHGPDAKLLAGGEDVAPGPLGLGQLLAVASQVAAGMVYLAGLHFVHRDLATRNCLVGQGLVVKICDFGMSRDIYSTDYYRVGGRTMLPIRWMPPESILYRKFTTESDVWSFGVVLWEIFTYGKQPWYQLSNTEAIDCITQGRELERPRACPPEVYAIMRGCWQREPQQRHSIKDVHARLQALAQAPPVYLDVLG
- method: Inhibition of TRKA G667C mutant (unknown origin) expressed in baculovirus expression system Sf9 cells using Ser/Thr 06 as peptide substrate incubated for 1 hr in presence of ATP by FRET based Z-LYTE assay
pIC50: −log10 of the molar value.
# maps each entry to its pIC50
measured.property: pIC50

- Cc1c2cc(cc1C(=O)Nc1cc(N3CCC(N4CCOCC4)CC3)cc(C(F)(F)F)c1)OCCCCCCCNC(=O)c1ccc3ncc(n3n1)C#C2: 8.47
- Cc1c2cc(cc1C(=O)Nc1cc(CN3CCN(C)CC3)cc(C(F)(F)F)c1)OCCCCCCCNC(=O)c1ccc3ncc(n3n1)C#C2: 8.50
- Cc1cn(-c2cc(NC(=O)c3cc4cc(c3C)C#Cc3cnc5ccc(nn35)NCCC(=O)NCCCCO4)cc(C(F)(F)F)c2)cn1: 8.28
- Cc1cn(-c2cc(NC(=O)c3cc4cc(c3C)C#Cc3cnc5ccc(nn35)NCCC(=O)N(C)CCCCO4)cc(C(F)(F)F)c2)cn1: 8.23
- Cc1cn(-c2cc(NC(=O)c3cc4cc(c3C)C#Cc3cnc5ccc(nn35)NCCN(C)C(=O)CCCCO4)cc(C(F)(F)F)c2)cn1: 8.13
- Cc1c2cc(cc1C(=O)Nc1cc(CN3CCN(C)CC3)cc(C(C)C)c1)OCCCCCCCNC(=O)c1ccc3ncc(n3n1)C#C2: 7.77
- Cc1c2cc(cc1C(=O)Nc1cc(C(C)(C)C)nn1-c1ccc(Cl)cc1)OCCCCCCCNC(=O)c1ccc3ncc(n3n1)C#C2: 7.83
- Cc1c2cc(cc1C(=O)Nc1ccc(CN3CCN(C)CC3)c(C(F)(F)F)c1)OCCCCCCCNC(=O)c1ccc3ncc(n3n1)C#C2: 8.45

---

- method: Half life in ICR mouse at 2.0 mg/kg, iv measured upto 24 hrs by LC-MS/MS analysis
- Format: ADME, organism-based
- cond: in vivo
measured.property: half-life

• Cc1c2cc(cc1C(=O)Nc1cc(CN3CCN(C)CC3)cc(C3CC3)c1)OCCCCCCCNC(=O)c1ccc3ncc(n3n1)C#C2 = 1.92 h

---

- measured.target: UniProtKB Q15375
measured.property: IC50 (nM)

• Cc1c2cc(cc1C(=O)Nc1cc(CN3CCN(C)CC3)cc(C3CC3)c1)OCCCCCCCNC(=O)c1ccc3ncc(n3n1)C#C2 = 1.77

---

- measured.target: Vascular endothelial growth factor receptor 3 (Homo sapiens, UniProt P35916)
- method: Inhibition of FLT4 (unknown origin)
measured.property: IC50 (nM)

• Cc1c2cc(cc1C(=O)Nc1cc(CN3CCN(C)CC3)cc(C3CC3)c1)OCCCCCCCNC(=O)c1ccc3ncc(n3n1)C#C2 = 59.4

---

- method: Half life in ICR mouse at 10 mg/kg, po measured upto 24 hrs by LC-MS/MS analysis
- Assay type: ADME, organism-based
- cond: in vivo
measured.property: half-life (h)

• Cc1c2cc(cc1C(=O)Nc1cc(CN3CCN(C)CC3)cc(C3CC3)c1)OCCCCCCCNC(=O)c1ccc3ncc(n3n1)C#C2 = 4.3

---

- measured.target: Angiopoietin-1 receptor (Homo sapiens, UniProt Q02763)
- Sequence (Q02763 whole entry): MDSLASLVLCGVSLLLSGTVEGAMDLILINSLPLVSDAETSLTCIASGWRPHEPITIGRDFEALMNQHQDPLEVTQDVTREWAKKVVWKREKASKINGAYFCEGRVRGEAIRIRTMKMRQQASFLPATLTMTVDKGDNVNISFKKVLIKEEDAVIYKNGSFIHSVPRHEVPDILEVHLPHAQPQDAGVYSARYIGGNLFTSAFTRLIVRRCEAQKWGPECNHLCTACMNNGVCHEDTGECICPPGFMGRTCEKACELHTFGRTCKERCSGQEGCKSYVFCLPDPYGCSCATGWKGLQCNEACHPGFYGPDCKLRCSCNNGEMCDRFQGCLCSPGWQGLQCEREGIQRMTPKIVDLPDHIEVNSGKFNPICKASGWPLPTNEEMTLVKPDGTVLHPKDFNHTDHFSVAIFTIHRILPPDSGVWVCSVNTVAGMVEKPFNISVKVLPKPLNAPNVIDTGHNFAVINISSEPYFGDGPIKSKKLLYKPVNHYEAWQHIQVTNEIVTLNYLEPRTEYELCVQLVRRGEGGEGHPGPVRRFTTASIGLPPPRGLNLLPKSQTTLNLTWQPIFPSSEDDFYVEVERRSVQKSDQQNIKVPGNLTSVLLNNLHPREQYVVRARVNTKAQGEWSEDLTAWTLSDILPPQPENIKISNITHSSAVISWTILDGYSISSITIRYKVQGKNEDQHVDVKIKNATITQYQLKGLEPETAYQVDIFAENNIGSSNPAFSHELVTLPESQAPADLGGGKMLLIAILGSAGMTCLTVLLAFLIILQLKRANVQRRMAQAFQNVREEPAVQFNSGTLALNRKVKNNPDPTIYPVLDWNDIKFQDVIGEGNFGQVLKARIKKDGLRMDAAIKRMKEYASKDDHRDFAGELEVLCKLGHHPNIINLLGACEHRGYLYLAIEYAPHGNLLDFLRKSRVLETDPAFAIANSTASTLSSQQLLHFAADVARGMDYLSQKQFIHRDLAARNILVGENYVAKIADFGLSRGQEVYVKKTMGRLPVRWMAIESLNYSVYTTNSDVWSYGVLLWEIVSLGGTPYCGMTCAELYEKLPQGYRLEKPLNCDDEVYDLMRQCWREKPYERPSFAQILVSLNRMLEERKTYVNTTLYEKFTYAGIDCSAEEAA
pIC50: −log10 of the molar value.
measured.property: pIC50

• Cc1c2cc(cc1C(=O)Nc1cc(CN3CCN(C)CC3)cc(C3CC3)c1)OCCCCCCCNC(=O)c1ccc3ncc(n3n1)C#C2 = 7.18

---

- measured.target: Ephrin type-A receptor 5 (Homo sapiens)
pIC50: −log10 of the molar value.
measured.property: pIC50

* Cc1c2cc(cc1C(=O)Nc1cc(CN3CCN(C)CC3)cc(C3CC3)c1)OCCCCCCCNC(=O)c1ccc3ncc(n3n1)C#C2 | 7.64

Values compiled from ChEMBL document CHEMBL5365464.
